biological target: UniProt:P38158; experiment: In vitro α-glucosidase inhibition assay; assay type: biochemical, S. cerevisiae; details: read-out: percent inhibition (0.5 mM)
Listing of recorded inhibition at 500 µM by entry.
Give just the number in %; leave the unit off.

Worked examples follow.
1) CCN(CC)c1ccc(C=Nc2ccc3[nH]c(S)nc3c2)cc1 [7d] :: 96.6
2) O=[N+]([O-])c1ccc(C=Nc2ccc3[nH]c(S)nc3c2)cc1 [7c] :: 95.7
3) COc1ccc(C=Nc2ccc3[nH]c(S)nc3c2)cc1OC [7h] :: 91.7
4) COc1ccc(C=Nc2ccc3[nH]c(S)nc3c2)c(OC)c1 [7f] :: 95
5) COc1ccccc1C=Nc1ccc2[nH]c(S)nc2c1 [7l] :: 83.2

Okay, now this molecule:
The reported inhibition at 500 µM value, UniProt:P38158, for Sc1nc2cc(N=Cc3cccs3)ccc2[nH]1 [7k] reads 87.6

----------
Listing of recorded inhibition at 500 µM by entry.
molecular target: α-glucosidase (Saccharomyces cerevisiae, UniProt P38158); experiment: In vitro α-glucosidase inhibition assay; type: biochemical, S. cerevisiae; conditions: read-out: percent inhibition (0.5 mM)
Sequence (P38158 whole entry): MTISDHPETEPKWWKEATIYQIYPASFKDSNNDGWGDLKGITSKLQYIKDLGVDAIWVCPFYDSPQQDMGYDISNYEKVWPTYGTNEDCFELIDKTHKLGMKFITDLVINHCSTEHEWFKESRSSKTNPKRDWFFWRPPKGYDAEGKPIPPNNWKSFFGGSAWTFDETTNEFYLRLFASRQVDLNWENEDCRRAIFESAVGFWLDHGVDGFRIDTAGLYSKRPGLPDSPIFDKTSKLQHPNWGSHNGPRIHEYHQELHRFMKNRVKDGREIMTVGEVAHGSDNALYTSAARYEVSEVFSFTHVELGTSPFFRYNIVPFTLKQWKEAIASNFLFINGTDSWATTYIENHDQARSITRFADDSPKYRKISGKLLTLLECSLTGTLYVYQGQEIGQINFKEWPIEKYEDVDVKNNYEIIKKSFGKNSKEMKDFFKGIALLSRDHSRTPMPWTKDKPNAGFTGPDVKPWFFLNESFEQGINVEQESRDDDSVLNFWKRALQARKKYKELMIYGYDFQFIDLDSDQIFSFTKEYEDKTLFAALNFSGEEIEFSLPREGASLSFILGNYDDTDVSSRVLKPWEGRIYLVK
Please give the number followed by its unit.

1) C[C@H]1O[C@H](O[C@H]2[C@H](O)[C@@H](O)[C@@H](O[C@H]3[C@H](O)[C@@H](O)C(O)O[C@@H]3CO)O[C@@H]2CO)[C@H](O)[C@@H](O)[C@@H]1N[C@H]1C=C(CO)[C@@H](O)[C@H](O)[C@H]1O (stereo partly drawn) [acarbose, reference compound] :: 58.5%
2) Sc1nc2cc(N=Cc3ccc(Cl)cc3)ccc2[nH]1 :: 93.2%

Okay, now this compound:
`Cc1ccc(C=Nc2ccc3[nH]c(S)nc3c2)cc1` has a reported inhibition at 500 µM of 94%
